Listing of entries alongside the reported Ki.
target: GABA-A receptor; alpha-6/beta-3/gamma-2 (Homo sapiens, UniProt P18507+P28472+Q16445); assay: Binding affinity for human recombinant gamma-aminobutyric-acid (GABA) A receptor alpha-6-beta-3-gamma-2
Sequence (P18507 whole entry): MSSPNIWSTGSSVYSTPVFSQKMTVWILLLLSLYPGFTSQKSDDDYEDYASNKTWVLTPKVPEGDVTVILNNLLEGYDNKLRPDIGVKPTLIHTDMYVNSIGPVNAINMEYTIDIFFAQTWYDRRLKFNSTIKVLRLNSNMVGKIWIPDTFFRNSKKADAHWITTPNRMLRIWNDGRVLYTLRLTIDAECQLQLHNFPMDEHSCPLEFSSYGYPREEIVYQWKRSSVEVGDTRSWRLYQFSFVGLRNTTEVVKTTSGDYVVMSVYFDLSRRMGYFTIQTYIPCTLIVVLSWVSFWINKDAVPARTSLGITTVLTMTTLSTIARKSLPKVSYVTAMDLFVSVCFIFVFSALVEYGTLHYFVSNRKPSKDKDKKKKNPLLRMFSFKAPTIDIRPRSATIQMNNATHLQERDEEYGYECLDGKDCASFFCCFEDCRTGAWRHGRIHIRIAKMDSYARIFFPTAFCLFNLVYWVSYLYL
Sequence (P28472 whole entry): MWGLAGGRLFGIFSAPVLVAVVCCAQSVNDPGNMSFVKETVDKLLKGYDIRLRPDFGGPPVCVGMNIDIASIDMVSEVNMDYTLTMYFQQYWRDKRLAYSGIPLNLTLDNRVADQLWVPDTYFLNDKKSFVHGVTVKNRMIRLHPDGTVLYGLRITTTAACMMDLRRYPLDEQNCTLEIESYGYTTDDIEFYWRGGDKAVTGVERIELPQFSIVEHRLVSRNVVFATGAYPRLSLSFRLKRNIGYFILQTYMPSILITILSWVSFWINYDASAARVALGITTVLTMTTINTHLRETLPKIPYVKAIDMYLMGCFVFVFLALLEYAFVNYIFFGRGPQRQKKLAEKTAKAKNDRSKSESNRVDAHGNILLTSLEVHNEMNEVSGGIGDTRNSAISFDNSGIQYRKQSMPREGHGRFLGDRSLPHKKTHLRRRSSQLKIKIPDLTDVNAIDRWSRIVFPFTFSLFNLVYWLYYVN
Sequence (Q16445 whole entry): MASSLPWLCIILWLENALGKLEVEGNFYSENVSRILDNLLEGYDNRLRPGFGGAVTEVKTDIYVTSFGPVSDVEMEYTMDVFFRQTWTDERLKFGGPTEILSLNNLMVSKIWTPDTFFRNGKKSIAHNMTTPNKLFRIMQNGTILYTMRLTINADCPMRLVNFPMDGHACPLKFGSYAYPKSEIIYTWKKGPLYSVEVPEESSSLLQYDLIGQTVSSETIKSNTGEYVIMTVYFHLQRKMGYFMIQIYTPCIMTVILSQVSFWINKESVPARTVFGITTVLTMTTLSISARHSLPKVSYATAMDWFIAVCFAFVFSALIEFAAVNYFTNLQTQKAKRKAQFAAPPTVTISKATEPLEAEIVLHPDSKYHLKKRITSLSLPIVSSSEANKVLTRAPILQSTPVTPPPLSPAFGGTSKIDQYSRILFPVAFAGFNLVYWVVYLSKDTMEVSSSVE

Some entries whose results are on file:
>  <COMPOUND>
CCOC(=O)c1ncn2c1CN(C)C(=O)c1ccccc1-2 [RO-147437]

>  <ASSAY_TARGET>
GABA-A receptor; alpha-6/beta-3/gamma-2 (Homo sapiens, UniProt P18507+P28472+Q16445)

>  <Ki>
> 0.3 µM

$$$$
>  <COMPOUND>
CN1C(=O)CN=C(c2ccccc2[N+](=O)[O-])c2cc([N+](=O)[O-])ccc21

>  <ASSAY_TARGET>
GABA-A receptor; alpha-6/beta-3/gamma-2 (Homo sapiens, UniProt P18507+P28472+Q16445)

>  <Ki>
> 10 µM

$$$$
>  <COMPOUND>
COC(=O)c1cc2c3cc(NC4CCCCC4)ccc3nc-2c[nH]1

>  <ASSAY_TARGET>
GABA-A receptor; alpha-6/beta-3/gamma-2 (Homo sapiens, UniProt P18507+P28472+Q16445)

>  <Ki>
> 10 µM

$$$$
>  <COMPOUND>
COc1ccc(-n2nc3c4ccc(OC)cc4[nH]cc-3c2=O)cc1

>  <ASSAY_TARGET>
GABA-A receptor; alpha-6/beta-3/gamma-2 (Homo sapiens, UniProt P18507+P28472+Q16445)

>  <Ki>
0.01 µM

$$$$
>  <COMPOUND>
S=C=Nc1cc2c3ccccc3nc-2c[nH]1

>  <ASSAY_TARGET>
GABA-A receptor; alpha-6/beta-3/gamma-2 (Homo sapiens, UniProt P18507+P28472+Q16445)

>  <Ki>
> 10 µM

$$$$
>  <COMPOUND>
N#CSc1ccc2[nH]c3cnc(SC#N)cc3c2c1

>  <ASSAY_TARGET>
GABA-A receptor; alpha-6/beta-3/gamma-2 (Homo sapiens, UniProt P18507+P28472+Q16445)

>  <Ki>
> 5 µM

$$$$
>  <COMPOUND>
CCCOc1ccc2[nH]c3cnc(OCCC)c(COC)c3c2c1

>  <ASSAY_TARGET>
GABA-A receptor; alpha-6/beta-3/gamma-2 (Homo sapiens, UniProt P18507+P28472+Q16445)

>  <Ki>
> 1 µM

$$$$
>  <COMPOUND>
CCCOc1ccc2[nH]c3cnc(C(=O)NN)c(COC)c3c2c1

>  <ASSAY_TARGET>
GABA-A receptor; alpha-6/beta-3/gamma-2 (Homo sapiens, UniProt P18507+P28472+Q16445)

>  <Ki>
> 0.3 µM

$$$$
>  <COMPOUND>
C#Cc1ccc2c(c1)C(c1ccccc1)=NCC(=O)N2C

>  <ASSAY_TARGET>
GABA-A receptor; alpha-6/beta-3/gamma-2 (Homo sapiens, UniProt P18507+P28472+Q16445)

>  <Ki>
> 3 µM

$$$$
>  <COMPOUND>
CN1C(=O)CN=C(c2ccccc2)c2cc(Cl)ccc21 [DIAZEPAM]

>  <ASSAY_TARGET>
GABA-A receptor; alpha-6/beta-3/gamma-2 (Homo sapiens, UniProt P18507+P28472+Q16445)

>  <Ki>
> 3 µM

$$$$

Now, please, on to the next compound.
// returns reported Ki for input CCCC(=O)c1cc2c(cn1)[nH]c1ccccc12
> 3 µM
